# Organism: Rattus norvegicus
# Assay procedure: Open TG-GATES - Regimen: Single
# Type: toxicity, organism-based, Sprague-Dawley
# Set-up: regimen Single, gender Male, age 6 weeks
# Recorded conditions: in vivo, po, 30 mg/kg, 24 h, tissue Blood, route gavage, dose level Middle
Parameter: APTT (s)
Reply with just the number (in s).

## Task Could you share which APTT value was measured for CN(C)CCN(Cc1cccs1)c1ccccn1 ?
## Result 20

## Task Please give the measured APTT for this compound: CC1=C(/C=C/C(C)=C/C=C/C(C)=C/CO)C(C)(C)CCC1
## Result 21.8

## Task Please report the recorded APTT for CN(C)CCCN1c2ccccc2CCc2ccc(Cl)cc21 .
## Result 16.9

## Task What value of measured APTT is listed for CN(C)CCCN1c2ccccc2CCc2ccccc21 ?
## Result 16.1

====

# Species on record: Rattus norvegicus
# Assay procedure: Open TG-GATES - Regimen: Daily Repeat
# Type: toxicity, organism-based, Sprague-Dawley
# Parameters: regimen Daily Repeat, gender Male, age 6 weeks
# Recorded conditions: in vivo, po, 0 mg/kg, 72 h, tissue Blood, route gavage, dose level Control, time 3 day
Parameter: Plat
Write the numeric value and follow it with the unit.

## Task Query (molecule): COc1ccc2[nH]c([S+]([O-])Cc3ncc(C)c(OC)c3C)nc2c1 (stereo not drawn) ; field requested: Plat
## Result 128.5 x10_4/uL

## Task Can you look up the measured Plat of NC(N)=Nc1nc(CSCCC(N)=NS(N)(=O)=O)cs1 for me?
## Result 125.1 x10_4/uL

## Task # get_value(readout='Plat', item= CCOC(=O)CCC(=O)O[C@H]1[C@H](O[C@@H]2[C@@H](C)[C@H](O[C@H]3C[C@@](C)(OC)[C@@H](O)[C@H](C)O3)[C@@H](C)C(=O)O[C@H](CC)[C@@](C)(O)[C@H](O)[C@@H](C)C(=O)[C@H](C)C[C@@]2(C)O)O[C@H](C)C[C@@H]1N(C)C [ERYTHROMYCIN ETHYLSUCCINATE] )
## Result 124.3 x10_4/uL

====

# Species: Rattus norvegicus
# Assay procedure: Open TG-GATES - Regimen: Daily Repeat
# Format: toxicity, organism-based, Sprague-Dawley
# Set-up: regimen Daily Repeat, gender Male, age 6 weeks
# Recorded conditions: in vivo, po, 1000 mg/kg, […], tissue Blood, route gavage, dose level High, time 28 day
Parameter: Lym (%)
Please give a number only; it is taken to be in %.

## Task Given CCOC(=O)CCC(=O)O[C@H]1[C@H](O[C@@H]2[C@@H](C)[C@H](O[C@H]3C[C@@](C)(OC)[C@@H](O)[C@H](C)O3)[C@@H](C)C(=O)O[C@H](CC)[C@@](C)(O)[C@H](O)[C@@H](C)C(=O)[C@H](C)C[C@@]2(C)O)O[C@H](C)C[C@@H]1N(C)C [ERYTHROMYCIN ETHYLSUCCINATE] , state its recorded Lym.
## Result 82.4

## Task Any idea what its Lym is? The molecule is COC1=CC(=O)C[C@@H](C)[C@]12Oc1c(Cl)c(OC)cc(OC)c1C2=O [GRISEOFULVIN]
## Result 84.4

## Task Returns the measured Lym for the input molecule. Input: COc1ccc2[nH]c([S+]([O-])Cc3ncc(C)c(OC)c3C)nc2c1 (stereo not given) [OMEPRAZOLE]
## Result 78.6

## Task Which Lym is reported for this molecule? CCOc1ccc(NC(=O)CC(C)O)cc1 (stereo not given) [BUCETIN]
## Result 78.2

## Task Dear colleague, I am looking for the recorded Lym of the following molecule: NC(N)=Nc1nc(CSCCC(N)=NS(N)(=O)=O)cs1 [FAMOTIDINE]
## Result 84.8

====

# Species: Rattus norvegicus
# Assay procedure: Open TG-GATES - Regimen: Single
# Type: toxicity, organism-based, Sprague-Dawley
# Set-up: regimen Single, gender Male, age 6 weeks
# Recorded conditions: in vivo, po, 1000 mg/kg, 3 h, tissue Blood, route gavage, dose level High
Hi there, I'd appreciate the recorded Plat for every entry that follows.
State the result as a value with its unit after it.

## Task Look up Plat: NC(N)=Nc1nc(CSCCC(N)=NS(N)(=O)=O)cs1 [FAMOTIDINE]
## Result 124.2 x10_4/uL

## Task Which Plat reading was recorded for the compound COC1=CC(=O)C[C@@H](C)[C@]12Oc1c(Cl)c(OC)cc(OC)c1C2=O [GRISEOFULVIN] ?
## Result 124.4 x10_4/uL

## Task I would be grateful if you could share the reported Plat for CCOC(=O)CCC(=O)O[C@H]1[C@H](O[C@@H]2[C@@H](C)[C@H](O[C@H]3C[C@@](C)(OC)[C@@H](O)[C@H](C)O3)[C@@H](C)C(=O)O[C@H](CC)[C@@](C)(O)[C@H](O)[C@@H](C)C(=O)[C@H](C)C[C@@]2(C)O)O[C@H](C)C[C@@H]1N(C)C [ERYTHROMYCIN ETHYLSUCCINATE] .
## Result 131 x10_4/uL

## Task What value of measured Plat is listed for COc1ccc2[nH]c([S+]([O-])Cc3ncc(C)c(OC)c3C)nc2c1 (centres undefined) [OMEPRAZOLE] ?
## Result 120.5 x10_4/uL

====

I'd appreciate it if you could supply Neu values for the items below.
# Species: Rattus norvegicus
# Assay procedure: Open TG-GATES - Regimen: Daily Repeat
# Assay type: toxicity, organism-based, Sprague-Dawley
# Set-up: regimen Daily Repeat, gender Male, age 6 weeks
# Recorded conditions: in vivo, po, 300 mg/kg, […], tissue Blood, route gavage, dose level Middle, time 14 day
Lab book: enter the figure in %, no units written.

## Task Give its Neu value. Item: COC1=CC(=O)C[C@@H](C)[C@]12Oc1c(Cl)c(OC)cc(OC)c1C2=O
## Result 13.6

## Task Please look up its Neu: COc1ccc2[nH]c([S+]([O-])Cc3ncc(C)c(OC)c3C)nc2c1 (stereo not given)
## Result 11.4

## Task Which measured Neu value corresponds to CCOC(=O)CCC(=O)O[C@H]1[C@H](O[C@@H]2[C@@H](C)[C@H](O[C@H]3C[C@@](C)(OC)[C@@H](O)[C@H](C)O3)[C@@H](C)C(=O)O[C@H](CC)[C@@](C)(O)[C@H](O)[C@@H](C)C(=O)[C@H](C)C[C@@]2(C)O)O[C@H](C)C[C@@H]1N(C)C [ERYTHROMYCIN ETHYLSUCCINATE] ?
## Result 8.2

## Task Looking for the measured Neu of NC(N)=Nc1nc(CSCCC(N)=NS(N)(=O)=O)cs1 , can you help?
## Result 16

## Task GET /values?readout=Neu&item= CCOc1ccc(NC(=O)CC(C)O)cc1 (stereo not given)
## Result 21.2

====

# Organism: Rattus norvegicus
# Assay procedure: Open TG-GATES - Regimen: Single
# Assay type: toxicity, organism-based, Sprague-Dawley
# Design: regimen Single, gender Male, age 6 weeks
# Recorded conditions: in vivo, po, 10 mg/kg, 24 h, tissue Blood, route gavage, dose level Low
Lab note: anything with Mono at or over 3% counts as met; the rest go in not met.

## Task Identify whether the reported Mono of the following compound is 3% or greater: CC1=C(/C=C/C(C)=C/C=C/C(C)=C/CO)C(C)(C)CCC1 [RETINOL]
## Result met

## Task Hello, I need to know if CC(C)OC(=O)C(C)(C)Oc1ccc(C(=O)c2ccc(Cl)cc2)cc1 [FENOFIBRATE] has measured Mono not below 3%. Thanks!
## Result met

## Task Confirm if Mono reported for the compound CN(C)CCN(Cc1cccs1)c1ccccn1 is 3% or above.
## Result not met

## Task Is Mono at least 3%? Consider CN(C)CCCN1c2ccccc2CCc2ccccc21 [IMIPRAMINE]
## Result not met

====

# Organism: Rattus norvegicus
# Assay procedure: Open TG-GATES - Regimen: Daily Repeat
# Type: toxicity, organism-based, Sprague-Dawley
# Design: regimen Daily Repeat, gender Male, age 6 weeks
# Recorded conditions: in vivo, po, 10 mg/kg, […], tissue Plasma, route gavage, dose level Low, time 28 day
Parameter: LDH (IU/L)
Output spec: scalar in IU/L, unitless text.

## Task Record request: LDH value, item CC(C)OC(=O)C(C)(C)Oc1ccc(C(=O)c2ccc(Cl)cc2)cc1 [FENOFIBRATE]
## Result 101.6

## Task // LDH lookup, key: CN(C)CCN(Cc1cccs1)c1ccccn1
## Result 183.6

## Task Entry under review: CC1=C(/C=C/C(C)=C/C=C/C(C)=C/CO)C(C)(C)CCC1 . Reported LDH?
## Result 167.2

## Task Using the record for CN(C)CCCN1c2ccccc2CCc2ccccc21 , report its LDH.
## Result 53.6
